Tested on: L1210 leukemia ip in BDF1 mice, survival T/C
protocol-description: NCI In Vivo Anticancer Drug Screen. Data for tumor model L1210 Leukemia (intraperitoneal) in B6D2F1 (BDF1) mice
run-parameters: endpoint: mean survival time; dose: 100.0 mg/kg/injection; schedule: Q04DX002 (ip); vehicle: saline with Tween-80; higher = longer survival
Method: The antitumor activity of compounds was measured in mice bearing transplantable tumors. Survival or tumor size were measured and the results are expressed as the measurement made in the treated group (T) divided by the measurement made in the vehicle treated control group (C). The tumor model used in this assay is L1210 Leukemia (intraperitoneal) in B6D2F1 (BDF1) mice
Toxic doses and inconclusive results are not listed.
reported-endpoint: T/C

Check out these entries, answers already filled in.
CCCCCCCCCCCCCCCCC(C)(O)C#CC(C)(O)CCCCCCCCCCCCCCCC (stereo unspecified); 101 % of control
Nc1ccccc1SC1CC(=O)N(c2ccc3c(c2)OCO3)C1=O (stereo unspecified); 93 % of control

Record CN(C(=O)c1ccccc1Cl)C(c1ccco1)P(=O)(c1ccccc1)c1ccccc1 (stereo unspecified) , field T/C: 93 % of control

----------
The entries below are paired with their reported T/C.
System: L1210 leukemia ip in BDF1 mice, survival T/C
protocol-description: NCI In Vivo Anticancer Drug Screen. Data for tumor model L1210 Leukemia (intraperitoneal) in B6D2F1 (BDF1) mice
run-parameters: endpoint: mean survival time; dose: 100.0 mg/kg/injection; schedule: Q04DX003 (ip); vehicle: other; higher = longer survival
Procedure: The antitumor activity of compounds was measured in mice bearing transplantable tumors. Survival or tumor size were measured and the results are expressed as the measurement made in the treated group (T) divided by the measurement made in the vehicle treated control group (C). The tumor model used in this assay is L1210 Leukemia (intraperitoneal) in B6D2F1 (BDF1) mice
Toxic doses and inconclusive results are not listed. Square brackets hold non-standard residues; d marks the D form. Peptide text beside a SMILES is read from it. * marks the point of attachment. ξ: configuration not given here. ξF = NC(Cc1ccccc1)C(=O)O; Cbz = O=C(OCc1ccccc1)*

COC(=O)C(Cc1ccccc1)NC(=O)CNC(=O)OCc1ccccc1 (stereo not drawn) (Cbz-Gly-[ξF]-OMe); 106 % of control
OC(CC(O)(C(F)(F)F)C(F)(F)F)c1cccc(C(F)(F)F)c1 (stereo not given); 101 % of control
CCCCNC(C)(C)C(SS)c1ccc(C(F)(F)F)cc1 (stereo not given); 86 % of control

O=C(O)CC(NS(=O)(=O)Cc1ccccc1)C(=O)O (stereo not given) tested on L1210 leukemia ip in BDF1 mice, survival T/C gave T/C: 94 % of control

CSc1nc(N)c(N)c(SC)n1 tested on L1210 leukemia ip in BDF1 mice, survival T/C gave T/C: 94 % of control

----------
Tested on: L1210 leukemia ip in BDF1 mice, survival T/C
protocol-description: NCI In Vivo Anticancer Drug Screen. Data for tumor model L1210 Leukemia (intraperitoneal) in B6D2F1 (BDF1) mice
run-parameters: endpoint: mean survival time; dose: 100.0 mg/kg/injection; schedule: Q04DX002 (ip); vehicle: saline; higher = longer survival
Experimental: The antitumor activity of compounds was measured in mice bearing transplantable tumors. Survival or tumor size were measured and the results are expressed as the measurement made in the treated group (T) divided by the measurement made in the vehicle treated control group (C). The tumor model used in this assay is L1210 Leukemia (intraperitoneal) in B6D2F1 (BDF1) mice
Inconclusive results and toxic doses are left out.
reported-endpoint: T/C

Check out these entries, answers already filled in.
CC1CCN(C(=O)CC#N)CC1; 102 % of control
C=CCOC(=O)C(F)(F)F; 89 % of control

Record CN(C)C(=O)OC(C)(C)C , field T/C: 97 % of control

Record NC(CCS)C(=O)O (stereo not drawn) , field T/C: 107 % of control

Record C(=C\c1ccccc1)/CN1CCOCC1 , field T/C: 105 % of control

Record NC(CS)=NCCc1nc2ccccc2[nH]1 , field T/C: 107 % of control

Record NCC1OC(OC2C(N)CC(N)C(OC3OC(CO)C(O)C(N)C3O)C2O)C(N)CC1O (stereo not drawn) , field T/C: 103 % of control
